Recorded growth by entry
System: SK-MEL-5 melanoma
Assay: NCI-60 one-dose screen, 48 h (100 = growth as untreated, 0 = no growth, -100 = all killed)
Conditions: 10 µM unless noted
Description: Growth inhibition of the SK-MEL-5 human tumor cell line is measured as a screen for anti-cancer activity. Cells are grown in 96 well plates and exposed to the test compound for 48 hours. Compounds are tested at a single concentration, which is 10^-5 M for most compounds. The reported endpoint is percent growth (GI% or GIPRCNT), where numbers from 0 - 100% represent growth inhibition, and numbers from -100% - 0 represent cell death. For example, a value of 40 represents 60% growth inhibition. […]
The panel holds about 83,000 compounds, 20% with a hit somewhere; the sample as a whole holds those more often. Calls of active or inactive are those of the source. How the source made its calls: active means growth percent below 10; inactive means the rest.

Worked examples, 5 compounds total:
compound	growth
Cc1ccc2nc3ccccc3c(NCc3ccc(Cl)cc3)c2c1	54% (inactive)
O=C1/C(=C/c2cn(-c3ccccc3)nc2-c2ccccc2)SC(=S)N1c1ccc(Cl)cc1	78.5% (inactive)
CCOC(=O)C(=CCC(C)C)C(=O)OCC	103% (inactive)
CN1CCN(Cc2ccc(NC(=O)c3nc4ccc5[nH]ncc5c4c4c3CCCC4)cc2C(F)(F)F)CC1	-92.6% (active)
COc1cc(/C=N/NC(=O)CCN2c3ccccc3Sc3ccccc32)cc(OC)c1OC	76.5% (inactive)

Reported growth ( `COc1ccc(C/C(C)=C(/c2ccc(OCCN3CCCC3)cc2)c2ccc(OC(=O)NCc3ccccc3)cc2)cc1` ) = 77.8% (inactive)

Record CC(=O)N1N=C(c2ccc(Nc3nc(Nc4ccc(F)cc4)nc(Nc4ccc(F)cc4)n3)cc2)CC1c1ccccc1 (stereo not given) . Reported growth: 69.6% (inactive)

Per the records, this compound ( `CC(=O)c1c(C)nc2ccccc2c1/C=C/c1cccc(C)c1` ) has growth equal to 54.3% (inactive)

The reported value for `Nn1c(-c2ccc(Cl)cc2)nc2c(-c3ccc(Cl)cc3)nc3ccc(Cl)cc3c2c1=O` in terms of growth is 52.5% (inactive)

Input `CCOc1ccccc1NC(=O)c1cc2ccccc2cc1O` . Output growth: 25.6% (inactive)
